# System: U2OS
# Assay remarks: Multiplex assay against U2OS
# Assay type: toxicity, cell-based
# Recorded conditions: human, 24 h, 10 µM, compound concentration 10 uM, replicate 2
Test readout: Population Tubulin-Different-Phenotype (%)
Your answer should be a plain number; it is taken to be in %.

Recorded Population Tubulin-Different-Phenotype (%), per entry:
Entry CCCSc1nc(N[C@@H]2C[C@H]2c2ccc(F)c(F)c2)c2nnn([C@@H]3C[C@H](OCCO)[C@@H](O)[C@H]3O)c2n1 has what Population Tubulin-Different-Phenotype (%)?
97

Repeat for the following compound: Cc1nc(N2CC[C@H](O)C2)ncc1-c1cc(C(F)(F)F)cc2[nH]ncc12
46

Repeat for the following compound: C=CC(=O)Nc1ccc2[nH]c(=O)n(C3CCN(Cc4ccc(-c5nc6cc[nH]c(=O)c6cc5-c5ccccc5)cc4)CC3)c2c1
22

Kindly review the next compound as well.
Entry CC(C)NC(=O)N1CC[C@H](NC2=Nc3cc(F)ccc3N(CC(F)F)c3ccc(Cl)cc32)C1 has what Population Tubulin-Different-Phenotype (%)?
51

###

# System: HEK-293T
# Assay remarks: Multiplex assay against HEK293T;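 also: share of the cells with healthy nuclei that show this phenotype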
# Format: toxicity, cell-based
# Recorded conditions: human, 48 h, 1 µM, compound concentration 1 uM, replicate 1
Everything with Population Tubulin-Different-Phenotype (%) lower than 40% is Not met; everything else, including exactly 40%, is Met.

Does the compound O=c1cc(N2CCOCC2)oc2c(-c3cccc4c3sc3ccccc34)cccc12 have recorded Population Tubulin-Different-Phenotype (%) that is 40% or more?
Met

Repeat for the following compound: COc1cc(Nc2nccc(-c3cnn4nc(OC)ccc34)n2)cc(C(F)(F)F)c1
Not met

Okay, next one:
Does the compound COc1cc2ncn(-c3cc(OCc4ccccc4C(F)(F)F)c(C(N)=O)s3)c2cc1OC [GW843682X] have recorded Population Tubulin-Different-Phenotype (%) that is 40% or more?
Met

###

# Test system: U2OS
# Assay remarks: Multiplex assay against U2OS
# Type: toxicity, cell-based
# Recorded conditions: human, 24 h, 1 µM, compound concentration 1 uM, replicate 2
Catalogue of Population Healthy Nuclei (%) values
Your answer should be a plain number; it is taken to be in %.

Recorded Population Healthy Nuclei (%), per entry:
Entry CNC(=O)Nc1ccc2c(c1)[C@@]1(CC2)OC(=O)N(CC(=O)N(Cc2ccc(F)cc2)[C@@H](C)C(F)(F)F)C1=O [A-486] has what Population Healthy Nuclei (%)?
88

Repeat for the following compound: Cc1nc(N2CC[C@H](O)C2)ncc1-c1cc(C(F)(F)F)cc2[nH]ncc12
92

Repeat for the following compound: CC(C)c1noc(N2CCC(COc3ccc(-c4ccc(S(C)(=O)=O)cc4)nc3)CC2)n1 [GSK-1292263]
83

Repeat for the following compound: CC1=C(C(=O)Nc2cc3cn[nH]c3cc2F)C(c2ccc(C(F)(F)F)cc2)CC(=O)N1 (stereo not drawn)
86

Repeat for the following compound: CNC(=O)Nc1ccc(-c2nc(N3CC4CCC(C3)O4)c3cnn(C4CCC5(CC4)OCCO5)c3n2)cc1
64

Repeat for the following compound: COc1ccccc1CN[C@H]1C2CCN(CC2)[C@H]1C(c1ccccc1)c1ccccc1 [CP-96345]
85

Repeat for the following compound: Cc1ccc2c(c1)c1c(n2CCc2ccc(C)nc2)CCN(C)C1 [LATREPIRDINE]
67

Repeat for the following compound: CCc1nn(CCCN2CCN(c3cccc(Cl)c3)CC2)c(=O)n1CCOc1ccccc1.Cl [NEFAZODONE HYDROCHLORIDE]
85

Repeat for the following compound: Cc1cccc(CN2CCN(C(c3ccccc3)c3ccc(Cl)cc3)CC2)c1.Cl.Cl (stereo not drawn)
73

Repeat for the following compound: CC(C)OC(=O)N1CCC(Oc2ncnc3c2cnn3-c2ccc(S(C)(=O)=O)cc2F)CC1
86

Others:
Entry Cc1ccc(C)c(Oc2ccncc2C(=O)N2CCN(C3CC3)c3ccccc32)c1 has what Population Healthy Nuclei (%)?
60

Repeat for the following compound: Cc1c[nH]c2nccc(Oc3c(F)cc(Nc4cc(Cl)nc(N)n4)cc3F)c12 [BAY-549]
71

Repeat for the following compound: CC(C)NC(=O)N1CC[C@H](NC2=Nc3cc(F)ccc3N(CC(F)F)c3ccc(Cl)cc32)C1
88

Repeat for the following compound: O=C(c1cc2c(cc1F)OC(c1ccc(F)cc1)(c1ccc(Cl)cc1Cl)O2)N1CCOCC1 (stereo not drawn)
88

Repeat for the following compound: CCCSc1nc(N[C@@H]2C[C@H]2c2ccc(F)c(F)c2)c2nnn([C@@H]3C[C@H](OCCO)[C@@H](O)[C@H]3O)c2n1 [TICAGRELOR]
87

Repeat for the following compound: COc1ccc(-c2ccc3ncc4c(c3c2)n(-c2ccc(N3CCNCC3)c(C(F)(F)F)c2)c(=O)n4C)cn1.O=C(O)/C=C\C(=O)O [BGT-226]
40

Repeat for the following compound: CN1CCN(Cc2ccc(Nc3ncc(Cl)c(Nc4ccccc4S(=O)(=O)N(C)C)n3)cc2)CC1 [DUBERMATINIB]
83

Repeat for the following compound: C=CC(=O)Nc1cccc(Sc2nc(Nc3ccc(N4CCN(C)CC4)cc3)ncc2Cl)c1
38

FYI, the data here is from ChEMBL document CHEMBL4689842.
